Can you tell me AC50 for the items I'm about to list?
molecular target: 5-hydroxytryptamine receptor 1A (Homo sapiens, UniProt P08908); type: functional, cell-based; note: assay procedure not described here
Sequence (P08908 whole entry): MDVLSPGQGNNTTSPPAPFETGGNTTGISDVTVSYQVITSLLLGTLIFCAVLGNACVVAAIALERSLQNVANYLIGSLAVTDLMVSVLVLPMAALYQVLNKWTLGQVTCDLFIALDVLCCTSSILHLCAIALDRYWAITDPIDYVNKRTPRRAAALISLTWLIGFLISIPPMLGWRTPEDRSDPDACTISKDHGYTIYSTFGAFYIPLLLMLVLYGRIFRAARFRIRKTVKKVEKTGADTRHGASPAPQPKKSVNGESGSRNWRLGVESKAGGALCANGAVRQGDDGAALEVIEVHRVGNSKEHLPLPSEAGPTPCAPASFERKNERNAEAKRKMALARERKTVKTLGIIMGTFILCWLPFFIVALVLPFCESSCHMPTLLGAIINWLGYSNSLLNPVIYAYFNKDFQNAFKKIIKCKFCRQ

Bench note, 5-hydroxytryptamine receptor 1A (Homo sapiens, UniProt P08908): CC1(C)O[C@@H]2C[C@H]3[C@@H]4CCC5=CC(=O)C=C[C@]5(C)[C@H]4[C@@H](O)C[C@]3(C)[C@]2(C(=O)CO)O1 [DESONIDE] , AC50 reads > 10 µM

Bench note, 5-hydroxytryptamine receptor 1A (Homo sapiens, UniProt P08908): OC(CNCC(O)C1CCc2cc(F)ccc2O1)C1CCc2cc(F)ccc2O1 (stereo not given) , AC50 reads 1.6 µM

Bench note, 5-hydroxytryptamine receptor 1A (Homo sapiens, UniProt P08908): COc1ccc(CCNCC(O)COc2cccc(C)c2)cc1OC (stereo not given) , AC50 reads 1.2 µM

Bench note, 5-hydroxytryptamine receptor 1A (Homo sapiens, UniProt P08908): CO/N=C(\C(=O)N[C@@H]1C(=O)N2C(C(=O)O)=C(CSc3nnnn3C)CS[C@H]12)c1csc(N)n1 , AC50 reads > 30 µM

Bench note, 5-hydroxytryptamine receptor 1A (Homo sapiens, UniProt P08908): Clc1ccc2nsnc2c1NC1=NCCN1 , AC50 reads > 30 µM

Bench note, 5-hydroxytryptamine receptor 1A (Homo sapiens, UniProt P08908): C=CCC1(CC(C)C)C(=O)NC(=O)NC1=O , AC50 reads > 10 µM

Bench note, 5-hydroxytryptamine receptor 1A (Homo sapiens, UniProt P08908): CN1C(=O)CCS(=O)(=O)C1c1ccc(Cl)cc1 (stereo not given) , AC50 reads > 10 µM

Bench note, 5-hydroxytryptamine receptor 1A (Homo sapiens, UniProt P08908): CC(=O)Nc1ccc(O)cc1 , AC50 reads > 30 µM

Bench note, 5-hydroxytryptamine receptor 1A (Homo sapiens, UniProt P08908): CCCCN1C[C@H](O)[C@@H](O)[C@H](O)[C@H]1CO , AC50 reads > 30 µM

Bench note, 5-hydroxytryptamine receptor 1A (Homo sapiens, UniProt P08908): NCC(=O)CCC(=O)O , AC50 reads > 30 µM

----------
Histamine H2 receptor (Homo sapiens, UniProt P25021) measurements of AC50, listed per entry. Note: assay procedure not described here.
Sequence (P25021 whole entry): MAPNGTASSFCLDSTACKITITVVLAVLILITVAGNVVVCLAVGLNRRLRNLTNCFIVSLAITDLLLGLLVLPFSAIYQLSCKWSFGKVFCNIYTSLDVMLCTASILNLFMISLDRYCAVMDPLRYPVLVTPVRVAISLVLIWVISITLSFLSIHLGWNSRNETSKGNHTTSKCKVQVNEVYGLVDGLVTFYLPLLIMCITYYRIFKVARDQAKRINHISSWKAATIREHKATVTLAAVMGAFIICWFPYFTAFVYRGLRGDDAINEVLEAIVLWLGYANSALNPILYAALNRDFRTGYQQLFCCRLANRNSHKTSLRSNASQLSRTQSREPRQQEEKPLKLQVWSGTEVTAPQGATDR

Lab note: CC/C(=C(\c1ccccc1)c1ccc(OCCN(C)C)cc1)c1ccccc1 [TAMOXIFEN] gave AC50 of 1.75 µM

Lab note: Cc1c(OCC(F)(F)F)ccnc1C[S+]([O-])c1nc2ccccc2[nH]1 (configuration not stated) [LANSOPRAZOLE] gave AC50 of 8.52 µM

Lab note: CCc1c(Cl)c(O)c(Cl)c(O)c1C(=O)O[C@H]1[C@H](O)[C@H](OC)[C@H](OC/C2=C\C=C\C[C@H](O)/C(C)=C/[C@H](CC)[C@@H](O[C@@H]3OC(C)(C)[C@@H](OC(=O)C(C)C)[C@H](O)[C@@H]3O)/C(C)=C/C(C)=C/C[C@@H]([C@@H](C)O)OC2=O)O[C@@H]1C [FIDAXOMICIN] gave AC50 of > 10 µM

Lab note: Cc1c(C(=O)NN2CCCCC2)nn(-c2ccc(Cl)cc2Cl)c1-c1ccc(Cl)cc1 [RIMONABANT] gave AC50 of 10.9 µM

Lab note: CCCN(CCC)C(=O)C(CCC(=O)O)NC(=O)c1ccccc1 (configuration not stated) [PROGLUMIDE] gave AC50 of > 10 µM

Lab note: CCC(C)n1ncn(-c2ccc(N3CCN(c4ccc(OCC5COC(Cn6cncn6)(c6ccc(Cl)cc6Cl)O5)cc4)CC3)cc2)c1=O (configuration not stated) [ITRACONAZOLE] gave AC50 of > 10 µM

Lab note: CN(C)CCC(c1ccc(Cl)cc1)c1ccccn1 (configuration not stated) [CHLORPHENIRAMINE] gave AC50 of 0.412 µM

Lab note: COc1cccc(C2(O)CCCCC2CN(C)C)c1 (configuration not stated) [TRAMADOL] gave AC50 of > 10 µM

Lab note: CCOC(=O)[C@H](CCc1ccccc1)N[C@@H](C)C(=O)N1[C@H](C(=O)O)C[C@@H]2CCC[C@@H]21 gave AC50 of > 10 µM

Lab note: O=[N+]([O-])c1cn2c(n1)OC[C@@H](OCc1ccc(OC(F)(F)F)cc1)C2 [PRETOMANID] gave AC50 of > 10 µM

Lab note: COc1ccc2c3c1O[C@H]1[C@@H](O)C=C[C@H]4[C@@H](C2)N(C)CC[C@@]341 [CODEINE] gave AC50 of > 10 µM

Lab note: COc1ccc(C(=O)Nc2ccccc2CCC2CCCCN2C)cc1 (configuration not stated) [ENCAINIDE] gave AC50 of 16.2 µM

Lab note: Clc1ccc2nsnc2c1NC1=NCCN1 [TIZANIDINE] gave AC50 of > 10 µM

Lab note: Cc1cn([C@H]2C[C@H](N=[N+]=[N-])[C@@H](CO)O2)c(=O)[nH]c1=O [ZIDOVUDINE] gave AC50 of > 10 µM

Lab note: N#Cc1ccc([C@H]2CCc3cncn32)c(F)c1 [OSILODROSTAT] gave AC50 of > 10 µM

Lab note: CCCCc1ncc(/C=C(\Cc2cccs2)C(=O)O)n1Cc1ccc(C(=O)O)cc1 [EPROSARTAN] gave AC50 of > 10 µM

Lab note: CNS(=O)(=O)Cc1ccc2[nH]cc(CCN(C)C)c2c1 gave AC50 of > 10 µM

----------
Muscarinic acetylcholine receptor M2 (Homo sapiens, UniProt P08172) measurements of AC50, listed per entry. Note: assay procedure not described here.
Sequence (P08172 whole entry): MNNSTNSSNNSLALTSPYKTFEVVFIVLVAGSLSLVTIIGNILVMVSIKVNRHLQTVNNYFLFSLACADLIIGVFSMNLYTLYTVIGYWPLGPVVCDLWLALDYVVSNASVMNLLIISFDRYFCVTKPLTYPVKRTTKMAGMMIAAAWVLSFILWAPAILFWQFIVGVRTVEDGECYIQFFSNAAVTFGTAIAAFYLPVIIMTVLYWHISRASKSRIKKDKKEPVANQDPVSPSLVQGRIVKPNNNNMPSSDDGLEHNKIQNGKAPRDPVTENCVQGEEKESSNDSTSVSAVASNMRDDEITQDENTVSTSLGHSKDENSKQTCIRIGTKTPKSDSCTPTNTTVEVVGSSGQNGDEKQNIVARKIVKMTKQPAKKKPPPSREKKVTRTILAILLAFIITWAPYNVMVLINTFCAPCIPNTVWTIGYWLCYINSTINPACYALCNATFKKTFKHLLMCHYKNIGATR

Lab note: Nc1ccc(S(=O)(=O)c2cnc(N)s2)cc1 gave AC50 of > 30 µM

Lab note: O=c1[nH]c(=O)n(C2CCCO2)cc1F (centres undefined) gave AC50 of > 30 µM

Lab note: C=CCN1C[C@H](C(=O)N(CCCN(C)C)C(=O)NCC)C[C@@H]2c3cccc4[nH]cc(c34)C[C@H]21 gave AC50 of > 30 µM

Lab note: Cc1ccccc1OCC(O)CO (centres undefined) gave AC50 of > 30 µM

Lab note: CCOc1ccccc1OCC1CNCCO1 (centres undefined) gave AC50 of > 30 µM

Lab note: Nc1ccncc1N gave AC50 of > 30 µM

Lab note: CC(C)(C)NCC(O)COc1cccc2c1SCCC2 (centres undefined) gave AC50 of > 30 µM

Lab note: CC1(C)NC(=O)N(c2ccc([N+](=O)[O-])c(C(F)(F)F)c2)C1=O [NILUTAMIDE] gave AC50 of > 30 µM

Lab note: CCC(=O)NCC[C@@H]1CCc2ccc3c(c21)CCO3 gave AC50 of > 30 µM

Lab note: Nc1ccc2cc3ccc(N)cc3nc2c1 gave AC50 of 2.61 µM

Lab note: CCOC(=O)[C@H](CCc1ccccc1)N[C@@H](C)C(=O)N1[C@H](C(=O)O)C[C@H]2CCCC[C@@H]21 gave AC50 of > 30 µM

Lab note: CC(CNC(=O)c1ccccc1)C(=O)OCC(=O)[C@@]12OC(C)(C)O[C@@H]1C[C@H]1[C@@H]3CCC4=CC(=O)C=C[C@]4(C)[C@@]3(F)[C@@H](O)C[C@@]12C (some centres undefined) [TRIAMCINOLONE BENETONIDE] gave AC50 of > 30 µM

Lab note: COc1ccc2c(c1)N(C[C@H](C)CN(C)C)c1ccccc1S2 gave AC50 of 1.68 µM

Lab note: CC[C@H]1CN2CC[C@H]1C[C@H]2[C@H](O)c1ccnc2ccc(OC)cc12 [HYDROQUININE] gave AC50 of 23.4 µM

Lab note: CC(=O)OCC1=C(C(=O)O)N2C(=O)[C@@H](NC(=O)[C@H](N)c3ccccc3)[C@H]2SC1 gave AC50 of > 30 µM

Lab note: O=C(Cc1ccc(-c2ccccc2)cc1)Nc1ccccn1 [DIFENPIRAMIDE] gave AC50 of > 30 µM

Lab note: CC(=O)c1ccc2c(c1)N(CCCN(C)C)c1ccccc1S2 gave AC50 of 0.204 µM

Lab note: CN(C)CCn1nnnc1SCC1=C(C(=O)O)N2C(=O)[C@@H](NC(=O)Cc3csc(N)n3)[C@H]2SC1 gave AC50 of > 30 µM

Lab note: N=C1CCCN1Cc1[nH]c(=O)[nH]c(=O)c1Cl gave AC50 of > 30 µM

Lab note: CC(C)C[C@H]1C(=O)N2CCC[C@H]2[C@]2(O)O[C@](NC(=O)[C@@H]3C=C4c5cccc6[nH]c(Br)c(c56)C[C@H]4N(C)C3)(C(C)C)C(=O)N12 gave AC50 of 29.1 µM

Lab note: CCN(CC)CCNc1ccc(CO)c2sc3ccccc3c(=O)c12 gave AC50 of 4.47 µM

Lab note: NC1=NCC2c3ccccc3Cc3ccccc3N12 (centres undefined) [EPINASTINE] gave AC50 of > 30 µM

Lab note: CC[C@H]1CN2CCc3cc(OC)c(OC)cc3[C@@H]2C[C@@H]1C[C@H]1NCCc2cc(OC)c(OC)cc21 gave AC50 of > 30 µM

Lab note: CC(=O)OCC(=O)[C@@]1(O)CC[C@H]2[C@@H]3CCC4=CC(=O)C=C[C@]4(C)[C@@]3(Cl)[C@@H](Cl)C[C@@]21C [DICHLORISONE ACETATE] gave AC50 of > 30 µM

Lab note: NC(=O)C[C@H](N)C(=O)O gave AC50 of > 30 µM

Lab note: NC1CCN(c2c(F)cc3c(=O)c(C(=O)O)cn(C4CC4)c3c2Cl)C1 (centres undefined) gave AC50 of 5.08 µM

Lab note: CCc1oc2ccccc2c1C(=O)c1cc(I)c(O)c(I)c1 gave AC50 of > 30 µM

Lab note: CC(=O)Oc1ccc2c(c1)CC[C@@H]1[C@@H]2CC[C@]2(C)[C@@H](O)CC[C@@H]12 [ESTRADIOL ACETATE] gave AC50 of > 30 µM

Lab note: N=c1ccn2c(n1)O[C@H]1[C@H](O)[C@@H](CO)O[C@H]12 gave AC50 of > 30 µM

Lab note: O=c1[nH]c(=O)n([C@H]2C[C@H](O)[C@@H](CO)O2)cc1F gave AC50 of > 30 µM

Lab note: CCC(C)(C)c1ccc(CC(C)CN2C[C@@H](C)O[C@@H](C)C2)cc1 (some centres undefined) gave AC50 of > 30 µM

Lab note: CC(C)COC(=O)OCN1C(=O)CN(CCN2CC(=O)N(COC(=O)OCC(C)C)C(=O)C2)CC1=O gave AC50 of > 30 µM

Lab note: CC(C)(C)C(=O)OCOC(=O)[C@@H]1N2C(=O)[C@@H](NC(=O)[C@H](N)c3ccccc3)[C@H]2SC1(C)C gave AC50 of > 30 µM

Lab note: COc1ccccc1N1CCN(CC(O)COc2cccc3ccccc23)CC1 (centres undefined) gave AC50 of > 30 µM
